So I've got a bunch of molecules here, and I need their cell viability values.
system: HDFB; assay: cell viability relative to DMSO control; higher = less growth inhibition; conditions: log10 concentration (M): -7; treatment time: 6 days
Give bare numbers, in %.

In the examples that follow, each entry is paired with its recorded cell viability.
molecule	cell viability [%]
O=C(NC[C@H](O)CN1CCc2ccccc2C1)c1ccnc(NC2CCC2)c1	117
CCOC(=O)NCCCC(=O)NCCc1ccccc1 [Santacruzamate A]	99.8

Now let's try a different one.
Would you mind telling me what cell viability value was observed for CN1CCN(c2ccc(-c3cccc(CN4CCOCC4)c3)cc2NC(=O)c2c[nH]c(=O)cc2C(F)(F)F)CC1 ?
105
